Target: Neuronal acetylcholine receptor subunit alpha-7 (Homo sapiens)
Sequence (P36544 whole entry): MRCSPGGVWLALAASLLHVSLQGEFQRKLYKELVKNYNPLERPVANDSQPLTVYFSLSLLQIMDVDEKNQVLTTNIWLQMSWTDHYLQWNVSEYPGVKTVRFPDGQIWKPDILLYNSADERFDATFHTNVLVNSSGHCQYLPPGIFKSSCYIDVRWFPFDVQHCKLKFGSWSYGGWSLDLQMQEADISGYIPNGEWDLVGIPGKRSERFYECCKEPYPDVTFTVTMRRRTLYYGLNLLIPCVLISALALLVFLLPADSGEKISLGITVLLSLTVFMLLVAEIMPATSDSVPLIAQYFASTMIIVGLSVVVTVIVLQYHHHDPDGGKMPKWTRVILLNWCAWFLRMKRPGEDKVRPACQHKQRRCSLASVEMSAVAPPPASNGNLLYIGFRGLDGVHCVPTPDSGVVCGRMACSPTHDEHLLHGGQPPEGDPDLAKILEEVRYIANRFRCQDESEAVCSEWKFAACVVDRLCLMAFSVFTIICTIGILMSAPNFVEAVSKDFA
Assay: Ca2+ Fluorometry
readout: pEC50
By convention, pEC50 is the negative base-10 log of a molar concentration.

Incoming: Query the reported pEC50 for Neuronal acetylcholine receptor subunit alpha-7 (Homo sapiens); item: CCN1C(C(=O)Nc2cccc(C(F)(F)F)n2)=CC([C@H]2CC[C@H](C(F)(F)F)CC2)=NS1(=O)=O [US12194050, Example 53]
Outgoing: 7.05

Each recorded value in this set is attributed to BindingDB's records for patent US12194050.
